System: E31 (patient-derived glioblastoma stem cells of proneural subtype);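 further: nuclei counted by high-content imaging of Hoechst-stained cells in laminin-coated 384-well plates, relative to 0.1% DMSO vehicle wells, with staurosporine as cell-death control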
Method: surviving fraction (nuclei count normalised to DMSO); higher = more cells surviving (less toxic)
Measurement conditions: 111.1 nM; exposure time: 72 h
Structures can show the parent of a compound that is named as a salt.
Endpoint name: surviving fraction
Answers are plain numbers.

[[record]]
molecule = "CC(=O)OC[C@H]1O[C@@H]([S-])[C@H](OC(C)=O)[C@@H](OC(C)=O)[C@@H]1OC(C)=O.CCP(CC)CC.[Au+]"
reported_result = 1.13

[[record]]
molecule = "CCCCCCNC(=O)n1cc(F)c(=O)[nH]c1=O"
reported_result = 0.961

[[record]]
molecule = "C[C@@]12C(=O)OC(=O)[C@]1(C)[C@H]1CC[C@@H]2O1"
reported_result = 0.531

[[record]]
molecule = "COc1cc2c(cc1-c1c(C)noc1C)ncc1[nH]c(=O)n([C@H](C)c3ccccn3)c12"
reported_result = 0.997

[[record]]
molecule = "NC(=O)c1ccccc1 [Benzamide]"
reported_result = 1.02


Give surviving fraction for each listed item.
1. CCOC(=O)OC(C)OC(=O)[C@@H]1N2C(=O)[C@@H](NC(=O)[C@H](N)c3ccccc3)[C@H]2SC1(C)C (stereo partly specified) [Bacampicillin hydrochloride]
2. COC(=O)Nc1nc2cc(C(=O)c3ccc(F)cc3)ccc2[nH]1
3. CC(C)NCC(O)COc1cccc2ccccc12 (stereo unspecified) [Propranolol hydrochloride]
4. CC[N+](CC)(CC)CCOc1ccc(/C=C/c2ccccc2)cc1
5. COc1cc(N)c(Cl)cc1C(=O)NC1CCN(CCCOc2ccc(F)cc2)CC1OC (stereo unspecified) [Cisapride]

*A*
1: 0.941; 2: 0.615; 3: 1.08; 4: 1.22; 5: 1
